// values below are reported growth
tested on: NCI/ADR-RES ovarian; assay: NCI-60 one-dose screen, 48 h (100 = growth as untreated, 0 = no growth, -100 = all killed); settings: 10 µM unless noted
Compounds without any hit were thinned out: in the full panel of roughly 83,000, 20% have a hit. Activity calls are given as the source filed them. Rule for the calls: active = growth percent below 10; inactive = the rest.
VALUE_KIND: growth

SMILES_NOTATION: CO[C@H]1/C=C/C=C/C=C/C[C@H](OC(=O)[C@@H](C)NC(=O)C2CCCCC2)[C@H](C)[C@@H](O)/C(C)=C\CCC2=CC(=O)C=C(NC(=O)C1)C2=O
RESULT: 32% (inactive)

SMILES_NOTATION: C/C(=N\N=C1/SCC(=O)N1c1ccccc1)c1ccco1
RESULT: 104% (inactive)

SMILES_NOTATION: O=[N+]([O-])c1cccc(C(c2ccccc2)c2ccccc2)c1
RESULT: 95.8% (inactive)

SMILES_NOTATION: COc1cc2c(cc1OC)-c1c(oc3c4c(ccc3c1=O)OC(C)(C)C=C4)CO2
RESULT: 65.8% (inactive)

SMILES_NOTATION: CCN(CC)CCC(C(=O)O)(c1ccccc1)c1ccccc1
RESULT: 97.8% (inactive)

---

Tested on: M14 melanoma
Experiment: NCI-60 one-dose screen, 48 h
Settings: 10 µM unless noted
Method: Growth inhibition of the M14 human tumor cell line is measured as a screen for anti-cancer activity. Cells are grown in 96 well plates and exposed to the test compound for 48 hours. Compounds are tested at a single concentration, which is 10^-5 M for most compounds. The reported endpoint is percent growth (GI% or GIPRCNT), where numbers from 0 - 100% represent growth inhibition, and numbers from -100% - 0 represent cell death. For example, a value of 40 represents 60% growth inhibition. […]
This is part of a sample that, as a whole, favours compounds with a hit. Of some 83,000 tested, about 20% had one in any assay. Activity calls are given as the source filed them. The calls were made as follows: active = growth percent below 10; inactive = the rest.
Outcomes: T = active, F = inactive

MOLECULE: CC(=O)c1cc2c(N)c(C(=O)Nc3cccc(Cl)c3)sc2nc1C
CLASS_NAME: F

MOLECULE: CC(C)CCC[C@@H](C)[C@H]1CC[C@H]2[C@@H]3CC=C4N(c5ccccc5)C(=O)CC[C@]4(C)[C@H]3CC[C@]12C
CLASS_NAME: F

MOLECULE: O[C@@H]1CCO[C@H](c2ccc3ccccc3c2)C1
CLASS_NAME: F

MOLECULE: C=C1C(=O)O[C@H]2[C@H]1CC/C(COC(=O)OC/C1=C/CC[C@@]3(C)O[C@H]3[C@H]3OC(=O)[C@@H](CN(C)C)[C@@H]3CC1)=C\CC[C@@]1(C)O[C@@H]21
CLASS_NAME: T

MOLECULE: O=C(CSc1nnc(-c2ccc(Cl)cc2)o1)Nc1ccc(C(=O)/C=C/c2ccccc2)cc1
CLASS_NAME: F

MOLECULE: Cc1ccc2oc(=O)cc(C3C(C#N)=C(N)Oc4c3ccc3ccccc43)c2c1 (stereo not given)
CLASS_NAME: F

MOLECULE: C=C1C(=O)O[C@H]2[C@H]1CC/C(C(=O)Nc1ccc(OC)c(C(N)=O)c1O)=C\CC[C@@]1(C)O[C@@H]21
CLASS_NAME: F

MOLECULE: O=C1C(Cl)=C(Nc2ccccc2)C(=O)C(Cl)=C1Nc1ccccc1
CLASS_NAME: F

MOLECULE: O=C(O)c1cc2ccccc2cc1Nc1ccccc1
CLASS_NAME: F

MOLECULE: CSc1nc(N)nc2c1ncn2C
CLASS_NAME: F

MOLECULE: Cc1ccc(NC(=O)CN2CCOCC2)cc1Cl
CLASS_NAME: F

MOLECULE: Cc1ccccc1C[P+](c1ccccc1)(c1ccccc1)c1ccccc1
CLASS_NAME: F

MOLECULE: O=C1c2ccccc2C(=O)c2c(NCCN=Cc3c(O)ccc4ccccc34)cccc21
CLASS_NAME: F

MOLECULE: Nn1c(CN2CCN(c3cc4c(cc3F)c(=O)c(C(=O)O)cn4C3CC3)CC2)n[nH]c1=S
CLASS_NAME: F

MOLECULE: O=C(O)c1ccccc1C(=O)c1ccc(I)cc1
CLASS_NAME: F

MOLECULE: CCCC(=O)Oc1ccc(/C(=C(\C)c2ccc(Cl)cc2)c2ccc(OCCN(CC)CC)cc2)cc1
CLASS_NAME: T

MOLECULE: Cc1[nH]c2ccc(F)cc2c1CCNC(=O)C1CCN(C(=O)c2ccc(-c3ccccc3)cc2)CC1
CLASS_NAME: F

MOLECULE: CCCCN(CCCC)c1ccc(C(=N)c2ccc(N(C)C)cc2)cc1
CLASS_NAME: T

MOLECULE: CCC(C)Nc1ccc(N)cc1 (stereo not given)
CLASS_NAME: F

MOLECULE: N#CC(C#N)=C(C#N)c1c[nH]c2ccccc12
CLASS_NAME: F

Cited source: PubChem BioAssay (NCI)
